Entries and their melting point
Endpoint: melting point

- CON(C)C(=O)c1ccc(Cl)c(Cl)c1: 39.5 to 43.2 °C
- CCCCC(=O)c1c(-c2ccc3c(Br)c(OCC(=O)O)ccc3c2)oc2ccc(Cl)cc12: 130 to 132 °C
- CCCOc1ccccc1-c1cc(C)c(C#N)c(=O)[nH]1: 180 °C
- CC(C)(C)c1ccc(CCC(CC2CCCCC2)OC(=O)Oc2ccc(C(=O)O)cc2)cc1NC(=O)CC1c2ccccc2Oc2ccccc21 (stereo not given): 139 to 141 °C
- CCSCCCCCSCCCCC(=O)O: 49.5 to 50 °C

* * *

Entries and their melting point
Endpoint: melting point

• COc1cc(N)c2c(c1)C(=O)CCN2 = 107 to 110 °C
• CC(C(O)C(C)(C)Cc1ccc(OC(F)(F)F)cc1)n1ncnc1S (stereo unspecified) = 125 to 126 °C
• Nc1ccc(C(=O)c2ccncc2)cc1 = 152 °C
• COc1cc(C(=O)c2ccc(C(F)(F)F)cc2)cc([N+](=O)[O-])c1OC = 115 °C
• CCCNc1nc(C)nc2c1nnn2-c1ccc(C(C)C)cc1Br = 156 to 157 °C
• O=C1CC(c2cccc(-c3nc(CO)co3)c2)=Nc2ccc(-n3cccc3)cc2N1 = 240 to 242 °C
• CCOC(=O)c1[nH]c2cc(Cl)cc(Cl)c2c1NCC(=O)OCCCC(=O)c1ccccc1 = 139 to 140 °C
• O=S1(=O)NCC2(OCCO2)c2ccc3ccccc3c21 = 202 to 204 °C
• COc1ccc2nc(-c3ccc(C)c(C)c3)n(-c3ccccc3)c2c1 = 251 °C
• CS(=O)(=O)On1nnc2ccccc2c1=O = 132 to 134 °C
• Cc1ncc2n1-c1ccc(Cl)cc1C(c1ccccc1)=[N+]([O-])C2 = 260 to 261 °C
• Cc1cc(=O)c(-c2ccc(Oc3ccc(OC(F)(F)F)cc3)cc2)c(C)[nH]1 = 244 to 248 °C
• CN1CC(C(=O)COC(=O)c2cccnc2)CC2c3cccc4[nH]cc(c34)CC21 (stereo unspecified) = 172 to 174 °C
• COc1nc2cc([N+](=O)[O-])c(C)c(C(=O)NCC(=O)OC(C)(C)C)c2nc1OC = 125 to 126 °C
• O=C(O)c1ccsc1-c1sccc1C(=O)O = 194 to 198 °C
• CC(C)(CNC(=O)c1ncc[nH]1)c1ccc(C(=O)Nc2cn3cc(C(F)(F)F)ccc3n2)cc1 = 292 to 293 °C
• FCCOc1cccc(CBr)c1OCCF = 99 to 100 °C
• CC(C)OC(=O)c1cc(-n2c(=O)cc(C(F)(F)F)[nH]c2=O)c(F)cc1Cl = 127 to 129 °C
• CCc1ccc(-n2c(-c3ccc(SC)cc3)nc(SC)c(C#N)c2=O)cc1 = 223 to 225 °C
• Cn1ncc(N2CCCCC2)c(C=NO)c1=O = 170 to 171 °C
• COc1cc(C2(C=O)C=CC=CC2)ccc1OCCCN1CCC(c2noc3cc(F)ccc23)CC1 (stereo unspecified) = 128 to 130 °C
